METHOD DESCRIPTION: chemical genetic growth profiling, strain panel (AID 1159580);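 also: tested at 20 µM; growth read once vehicle control cultures reached saturation at 30 °C; 1 = growth at the plate median or of vehicle wells; lower values mean less growth of the strain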
TEST PARAMETERS: S. cerevisiae deletion strains, growth OD, locus YMR307W, strain GAS1, active compounds read low
About 2,000 (36%) of roughly 5,500 compounds were called active. Another 18% or so got no clear call; they are omitted. The list shows a part of the results.
Recorded normalized growth values for a group of compounds are listed next.

{"columns": ["CHEMICAL SMILES", "normalized growth"],
 "data": [
  ["CC(C)Cn1c(=O)n(C)c(=O)c2[nH]cnc21", "0.924 (inactive)"],
  ["O=C(O)CCC(=O)OC[C@@H](NC(=O)C(Cl)Cl)[C@H](O)c1ccc([N+](=O)[O-])cc1", "1.05 (inactive)"],
  ["CCCc1ncc(C[n+]2ccccc2C)c(N)n1", "1.06 (inactive)"],
  ["O=C(N[C@@H](CO)[C@H](O)c1ccc([N+](=O)[O-])cc1)C(Cl)Cl", "0.986 (inactive)"],
  ["Cn1c(=O)c2c(ncn2CCO)n(C)c1=O", "0.975 (inactive)"],
  ["CCOC(=O)c1ccc(Oc2ncc(C(F)(F)F)cc2Cl)cc1", "0.68 (inactive)"],
  ["NS(=O)(=O)c1cc2c(cc1Cl)NCNS2(=O)=O", "0.999 (inactive)"]
]}
